The reported measurements were obtained from patent US11952363B2.

- target-of-assay: hERG (Homo sapiens, UniProt Q12809)
- Construct: expressed in transfected cells
- Sequence (Q12809 whole entry): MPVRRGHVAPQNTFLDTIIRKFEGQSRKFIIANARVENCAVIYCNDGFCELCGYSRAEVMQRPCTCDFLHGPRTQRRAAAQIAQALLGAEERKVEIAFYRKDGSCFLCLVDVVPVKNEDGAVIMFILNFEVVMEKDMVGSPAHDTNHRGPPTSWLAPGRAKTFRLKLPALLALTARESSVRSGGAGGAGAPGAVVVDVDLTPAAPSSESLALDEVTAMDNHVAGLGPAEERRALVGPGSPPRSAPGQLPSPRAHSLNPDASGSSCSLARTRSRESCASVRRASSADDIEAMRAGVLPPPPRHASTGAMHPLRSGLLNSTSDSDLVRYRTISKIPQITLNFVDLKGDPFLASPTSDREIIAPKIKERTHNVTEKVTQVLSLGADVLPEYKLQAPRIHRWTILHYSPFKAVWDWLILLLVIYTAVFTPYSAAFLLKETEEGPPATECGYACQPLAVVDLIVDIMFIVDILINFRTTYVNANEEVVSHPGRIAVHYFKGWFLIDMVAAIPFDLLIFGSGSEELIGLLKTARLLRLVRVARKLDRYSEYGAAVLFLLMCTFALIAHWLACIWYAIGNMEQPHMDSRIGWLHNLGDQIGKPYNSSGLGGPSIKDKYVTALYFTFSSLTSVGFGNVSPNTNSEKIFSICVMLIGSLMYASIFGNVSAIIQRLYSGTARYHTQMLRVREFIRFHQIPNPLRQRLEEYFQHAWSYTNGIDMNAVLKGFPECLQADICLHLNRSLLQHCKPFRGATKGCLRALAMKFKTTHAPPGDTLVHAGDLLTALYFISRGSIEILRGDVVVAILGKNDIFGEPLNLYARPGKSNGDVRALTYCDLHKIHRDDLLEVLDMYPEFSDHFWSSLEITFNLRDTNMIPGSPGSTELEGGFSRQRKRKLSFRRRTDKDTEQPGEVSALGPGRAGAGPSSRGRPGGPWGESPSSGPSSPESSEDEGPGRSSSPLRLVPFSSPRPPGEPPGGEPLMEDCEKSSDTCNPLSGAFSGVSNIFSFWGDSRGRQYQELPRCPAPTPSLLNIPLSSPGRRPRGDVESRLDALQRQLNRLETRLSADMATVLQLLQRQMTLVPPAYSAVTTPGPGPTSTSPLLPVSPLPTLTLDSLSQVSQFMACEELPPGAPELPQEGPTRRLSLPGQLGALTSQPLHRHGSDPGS
- experiment-summary: hERG channel inhibition assay (patch-clamp, CHO hERG cells)
- Format: cell-based
- measurement-setup: human, CHO cells stably expressing hERG; CHO hERG cells, whole-cell patch-clamp
Measured IC20, listed per entry.
property: IC20

>>> endpoint_value("C[C@@H]1CN(c2ccc(C#N)c3ncccc23)C[C@H](C)N1Cc1ccc(N2CCNCC2)nc1")
"7.4 µM"
>>> endpoint_value("C[C@@H]1CN(c2ccc(C#N)c3ncccc23)C[C@H](C)N1Cc1ccc(N2CCN(C(=O)C3CCCN3)CC2)cn1 (stereo partly drawn)")
"> 10 µM"
>>> endpoint_value("C[C@@H]1CN(c2ccc(C#N)c3ncccc23)C[C@H](C)N1Cc1ncc(N2CCNCC2)cn1")
"6.3 µM"
>>> endpoint_value("C[C@@H]1CN(c2ccc(C#N)c3ncccc23)C[C@H](C)N1CC(=O)N1Cc2ccc(N3CCNCC3)cc2C1")
"> 10 µM"
>>> endpoint_value("C[C@@H]1CN(c2ccc(C#N)c3ncccc23)C[C@H](C)N1Cc1ccc(N2CCN(C(=O)CN(C)C)CC2)cn1")
"> 10 µM"
>>> endpoint_value("C[C@@H]1CN(c2ccc(C#N)c3ncccc23)C[C@H](C)N1Cc1ccc(N2CCNCC2)cn1")
"> 10 µM"

====

Measured hERG IC20/TLR7 IC50, listed per entry.
- target-of-assay: hERG (Homo sapiens, UniProt Q12809)
- Construct: expressed in transfected cells
- experiment-summary: hERG channel inhibition assay (patch-clamp, CHO hERG cells)
- Format: cell-based
- measurement-setup: safety ratio; >30 suggests sufficient window
property: hERG IC20/TLR7 IC50

>>> endpoint_value("C[C@@H]1CN(c2ccc(C#N)c3ncccc23)C[C@H](C)N1Cc1ncc(N2CCNCC2)cn1")
384
>>> endpoint_value("C[C@@H]1CN(c2ccc(C#N)c3ncccc23)C[C@H](C)N1Cc1ccc(N2CCNCC2)cn1")
">833"
>>> endpoint_value("C[C@@H]1CN(c2ccc(C#N)c3ncccc23)C[C@H](C)N1Cc1ccc(N2CCNCC2)nc1")
383
>>> endpoint_value("C[C@@H]1CN(c2ccc(C#N)c3ncccc23)C[C@H](C)N1CC(=O)N1Cc2ccc(N3CCNCC3)cc2C1")
">289"
>>> endpoint_value("C[C@@H]1CN(c2ccc(C#N)c3ncccc23)C[C@H](C)N1Cc1ccc(N2CCN(C(=O)C3CCCN3)CC2)cn1 (stereo partly drawn)")
">145"
>>> endpoint_value("C[C@@H]1CN(c2ccc(C#N)c3ncccc23)C[C@H](C)N1Cc1ccc(N2CCN(C(=O)CN(C)C)CC2)cn1")
">198"

====

- target-of-assay: human TLR9 (Homo sapiens)
- Sequence (Q9NR96 26-1032): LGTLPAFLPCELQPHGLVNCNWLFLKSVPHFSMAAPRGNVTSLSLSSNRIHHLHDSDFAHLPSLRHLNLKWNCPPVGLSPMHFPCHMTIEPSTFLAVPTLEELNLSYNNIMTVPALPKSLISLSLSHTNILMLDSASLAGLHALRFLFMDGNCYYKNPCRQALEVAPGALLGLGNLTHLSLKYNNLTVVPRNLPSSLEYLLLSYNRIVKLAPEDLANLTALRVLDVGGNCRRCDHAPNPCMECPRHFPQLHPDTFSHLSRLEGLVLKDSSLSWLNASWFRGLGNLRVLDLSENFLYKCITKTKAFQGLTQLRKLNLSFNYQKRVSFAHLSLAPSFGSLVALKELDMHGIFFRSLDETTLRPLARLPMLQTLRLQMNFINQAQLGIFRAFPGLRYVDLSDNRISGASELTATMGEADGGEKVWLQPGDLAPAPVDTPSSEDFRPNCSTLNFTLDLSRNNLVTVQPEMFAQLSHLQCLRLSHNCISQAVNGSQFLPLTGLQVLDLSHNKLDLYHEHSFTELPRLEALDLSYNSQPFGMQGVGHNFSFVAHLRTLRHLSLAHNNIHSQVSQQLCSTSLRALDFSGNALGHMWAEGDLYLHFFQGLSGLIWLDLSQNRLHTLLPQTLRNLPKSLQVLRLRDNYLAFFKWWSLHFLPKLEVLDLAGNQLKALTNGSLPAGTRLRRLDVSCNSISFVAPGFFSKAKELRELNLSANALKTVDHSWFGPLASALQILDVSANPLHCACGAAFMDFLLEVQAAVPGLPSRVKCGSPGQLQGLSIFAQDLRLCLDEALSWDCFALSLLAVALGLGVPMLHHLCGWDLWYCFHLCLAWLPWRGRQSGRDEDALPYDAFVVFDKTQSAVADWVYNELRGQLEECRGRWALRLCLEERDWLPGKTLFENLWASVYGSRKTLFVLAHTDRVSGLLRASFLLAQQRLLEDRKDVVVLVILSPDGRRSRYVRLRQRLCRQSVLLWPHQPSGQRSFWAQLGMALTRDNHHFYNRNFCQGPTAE
- experiment-summary: HEK293-Blue-hTLR-9 cells assay (SEAP reporter, ODN2006 stimulation)
- measurement-setup: HEK293-Blue-hTLR9 cells, ODN2006 ligand, 20 hrs incubation; read-out: HEK/hTLR9 IC50
pIC50: −log10 of the molar value.
property: pIC50

>>> endpoint_value("C[C@@H]1CN(c2ccc(C#N)c3ncccc23)C[C@H](C)N1Cc1ccc(N2CCN(C(=O)CN(C)C)CC2)cn1 [Example 11]")
7.02
>>> endpoint_value("C[C@@H]1CN(c2ccc(C#N)c3ncccc23)C[C@H](C)N1Cc1ccc(N2CCNCC2)nc1 [Example 3]")
7.03
>>> endpoint_value("C[C@@H]1CN(c2ccc(C#N)c3ncccc23)C[C@H](C)N1CC(=O)N1CCc2cc(N3CCNCC3)ccc2C1 [Example 14]")
6.94
>>> endpoint_value("C[C@@H]1CN(c2ccc(C#N)c3ncccc23)C[C@H](C)N1Cc1ccc(N2CC3CNCC(C2)O3)cn1 [Example 8]")
7.14

====

- target-of-assay: human TLR8 (Homo sapiens, UniProt Q9NR97)
- Sequence (Q9NR97 27-1041): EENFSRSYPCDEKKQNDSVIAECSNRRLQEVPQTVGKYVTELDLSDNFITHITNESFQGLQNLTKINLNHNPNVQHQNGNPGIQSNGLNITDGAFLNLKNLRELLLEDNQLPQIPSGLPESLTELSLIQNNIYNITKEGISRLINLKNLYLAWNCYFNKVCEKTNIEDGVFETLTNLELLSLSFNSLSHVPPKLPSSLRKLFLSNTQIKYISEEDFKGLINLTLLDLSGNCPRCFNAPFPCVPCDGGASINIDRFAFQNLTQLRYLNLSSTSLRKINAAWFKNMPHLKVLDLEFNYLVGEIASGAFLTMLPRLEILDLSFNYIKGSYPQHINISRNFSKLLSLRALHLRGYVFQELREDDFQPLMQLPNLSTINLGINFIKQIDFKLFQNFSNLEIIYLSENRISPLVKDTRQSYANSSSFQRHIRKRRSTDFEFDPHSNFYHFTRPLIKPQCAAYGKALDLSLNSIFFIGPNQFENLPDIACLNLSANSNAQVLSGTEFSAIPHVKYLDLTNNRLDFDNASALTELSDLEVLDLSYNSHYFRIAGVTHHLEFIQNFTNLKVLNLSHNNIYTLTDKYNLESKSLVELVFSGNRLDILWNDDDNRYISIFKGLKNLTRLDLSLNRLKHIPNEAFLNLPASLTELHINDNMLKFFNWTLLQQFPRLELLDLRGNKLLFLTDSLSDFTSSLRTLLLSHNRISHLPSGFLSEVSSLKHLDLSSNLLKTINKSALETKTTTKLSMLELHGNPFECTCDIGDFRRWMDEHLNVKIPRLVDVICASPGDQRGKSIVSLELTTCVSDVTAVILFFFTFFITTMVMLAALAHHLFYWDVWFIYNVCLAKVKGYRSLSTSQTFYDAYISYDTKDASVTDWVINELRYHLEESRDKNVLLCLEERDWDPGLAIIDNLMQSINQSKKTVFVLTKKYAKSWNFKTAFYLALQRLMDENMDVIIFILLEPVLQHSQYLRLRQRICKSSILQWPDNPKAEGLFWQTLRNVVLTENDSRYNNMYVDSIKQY
- experiment-summary: HEK293-Blue-hTLR-8 cells assay (SEAP reporter, R848 stimulation)
- Assay type: cell-based
- measurement-setup: HEK293-Blue-hTLR8 cells, R848 ligand, 20 hrs incubation; read-out: HEK/hTLR8 IC50
Measured IC50, listed per entry.
property: IC50 (µM)

>>> endpoint_value("CC1CN(c2ccc(C#N)c3ncccc23)CCN1CC(=O)Nc1ccc(N2CCNCC2)cc1 (stereo not drawn) [Example 17]")
0.058
>>> endpoint_value("C[C@@H]1CN(c2ccc(C#N)c3ncccc23)C[C@H](C)N1Cc1ccc(N2CCNCC2)nc1 [Example 3]")
0.031
>>> endpoint_value("C[C@@H]1CN(c2ccc(C#N)c3ncccc23)C[C@H](C)N1Cc1ccc(N2CCNCC2CO)cc1 (stereo partly drawn) [Example 12]")
0.033
>>> endpoint_value("C[C@@H]1CN(c2ccc(C#N)c3ncccc23)C[C@H](C)N1Cc1ccc(N2CCN(C(=O)C3CCCN3)CC2)cn1 (stereo partly drawn) [Example 10]")
0.052
>>> endpoint_value("C[C@@H]1CN(c2ccc(C#N)c3ncccc23)C[C@@H](C)N1Cc1ccc(N2CCNCC2)cc1 [Example 2]")
0.032
>>> endpoint_value("C[C@@H]1CN(c2ccc(C#N)c3ncccc23)C[C@H](C)N1Cc1ncc(N2CCN(C(=O)CN(C)C)CC2)cn1 [Example 6]")
0.053
>>> endpoint_value("C[C@@H]1CN(c2ccc(C#N)c3ncccc23)C[C@H](C)N1CC(=O)N1CCc2cc(N3CCNCC3)ccc2C1 [Example 14]")
0.02
>>> endpoint_value("C[C@@H]1CN(c2ccc(C#N)c3ncccc23)C[C@H](C)N1Cc1ccc(N2CCNCC2)cc1 [Example 1]")
0.016
>>> endpoint_value("C[C@@H]1CN(c2ccc(C#N)c3ncccc23)C[C@H](C)N1CC(=O)N1CCc2nc(N3CCNCC3)ccc2C1 [Example 13]")
0.021
>>> endpoint_value("CC1CN(c2ccc(C#N)c3ncccc23)CCN1CC(=O)N1CCC(C2CCN(C)CC2)CC1 (stereo not drawn) [Example 19]")
0.093
>>> endpoint_value("C[C@@H]1CN(c2ccc(C#N)c3ncccc23)C[C@H](C)N1CC(=O)N1CCc2ccc(N3CCNCC3)cc2C1 [Example 15]")
0.046
>>> endpoint_value("C[C@@H]1CN(c2ccc(C#N)c3ncccc23)C[C@H](C)N1Cc1ccc(N2CC3CNCC(C2)O3)cn1 [Example 8]")
0.036
>>> endpoint_value("C[C@@H]1CN(c2ccc(C#N)c3ncccc23)C[C@H](C)N1Cc1ccc(N2CCN(C(=O)CN(C)C)CC2)cn1 [Example 11]")
0.035
>>> endpoint_value("C[C@@H]1CN(c2ccc(C#N)c3ncccc23)C[C@H](C)N1Cc1ncc(N2CCNCC2)cn1 [Example 4]")
0.019
>>> endpoint_value("C[C@@H]1CN(c2ccc(C#N)c3ncccc23)C[C@H](C)N1CC(=O)N1Cc2ccc(N3CCNCC3)cc2C1 [Example 16]")
0.055
